Target: human MC4R receptor (human, UniProt P32245 1-332)
Sequence (P32245 whole entry): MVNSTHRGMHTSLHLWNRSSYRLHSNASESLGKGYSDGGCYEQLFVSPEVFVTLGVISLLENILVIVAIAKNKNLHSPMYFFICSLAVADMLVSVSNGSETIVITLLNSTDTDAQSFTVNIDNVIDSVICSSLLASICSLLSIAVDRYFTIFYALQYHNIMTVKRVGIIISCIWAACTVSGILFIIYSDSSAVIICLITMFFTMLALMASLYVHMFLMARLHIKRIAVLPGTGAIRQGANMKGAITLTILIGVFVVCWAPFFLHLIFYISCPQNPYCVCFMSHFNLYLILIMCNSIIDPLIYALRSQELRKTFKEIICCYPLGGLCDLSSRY
Assay: cell-based or functional assay
Positions of bridges follow the written chain, without caps; N, C: chain ends. Non-standard residues stand in square brackets, D forms with d. dPhe(4-Br) = N[C@H](Cc1ccc(Br)cc1)C(=O)O; 2Pal = N[C@@H](Cc1ccccn1)C(=O)O; 3Pal = N[C@@H](Cc1cccnc1)C(=O)O; Cit = NC(=O)NCCC[C@H](N)C(=O)O; Nle = CCCC[C@H](N)C(=O)O; Aib = CC(C)(N)C(=O)O
endpoint: MC4R selectivity vs MC3R
Write no unit; give the number alone.

Example entries begin here.
1) Ac-C[Aib]H[dF]RFC-NH2 (disulfide 1-7; SMILES CC(=O)N[C@H]1CSSC[C@@H](C(N)=O)NC(=O)[C@H](Cc2ccccc2)NC(=O)[C@H](CCCNC(=N)N)NC(=O)[C@@H](Cc2ccccc2)NC(=O)[C@H](Cc2c[nH]cn2)NC(=O)C(C)(C)NC1=O) [CTX-1634]
6.68
2) Ac-R[Nle]CH[dF]RWC-NH2 (disulfide 3-8; SMILES CCCC[C@H](NC(=O)[C@H](CCCNC(=N)N)NC(C)=O)C(=O)N[C@H]1CSSC[C@@H](C(N)=O)NC(=O)[C@H](Cc2c[nH]c3ccccc23)NC(=O)[C@H](CCCNC(=N)N)NC(=O)[C@@H](Cc2ccccc2)NC(=O)[C@H](Cc2c[nH]cn2)NC1=O) [CTX-1227]
11
3) Ac-RC[dA]R[dF][Cit][dW]C-NH2 (disulfide 2-8) [CTX-1281]
0.29
4) Ac-R[Nle]C[3Pal][dF]RWC-NH2 (disulfide 3-8; SMILES CCCC[C@H](NC(=O)[C@H](CCCNC(=N)N)NC(C)=O)C(=O)N[C@H]1CSSC[C@@H](C(N)=O)NC(=O)[C@H](Cc2c[nH]c3ccccc23)NC(=O)[C@H](CCCNC(=N)N)NC(=O)[C@@H](Cc2ccccc2)NC(=O)[C@H](Cc2cccnc2)NC1=O) [CTX-1620]
12
5) Ac-R[Nle]CR[dPhe(4-Br)]RFC-NH2 (disulfide 3-8; SMILES CCCC[C@H](NC(=O)[C@H](CCCNC(=N)N)NC(C)=O)C(=O)N[C@H]1CSSC[C@@H](C(N)=O)NC(=O)[C@H](Cc2ccccc2)NC(=O)[C@H](CCCNC(=N)N)NC(=O)[C@@H](Cc2ccc(Br)cc2)NC(=O)[C@H](CCCNC(=N)N)NC1=O) [CTX-1623]
2.29

As a next step, examine the binder that follows.
Task: Which value of MC4R selectivity vs MC3R has been reported for Ac-RC[Aib][2Pal][dF]RFC-NH2 (disulfide 2-8; SMILES CC(=O)N[C@@H](CCCNC(=N)N)C(=O)N[C@H]1CSSC[C@@H](C(N)=O)NC(=O)[C@H](Cc2ccccc2)NC(=O)[C@H](CCCNC(=N)N)NC(=O)[C@@H](Cc2ccccc2)NC(=O)[C@H](Cc2ccccn2)NC(=O)C(C)(C)NC1=O) [CTX-1604] in the records?
Result: 0.11

These entries and their values trace back to patent US20240391954A1.
